Documented rate across a set of compounds
measured-target: hSARM1 full length (Homo sapiens, UniProt Q6SZW1)
Construct: Human recombinant SARM1 full length proteins (wild-type and E642A mutant); made in house
Sequence (Q6SZW1 28-724): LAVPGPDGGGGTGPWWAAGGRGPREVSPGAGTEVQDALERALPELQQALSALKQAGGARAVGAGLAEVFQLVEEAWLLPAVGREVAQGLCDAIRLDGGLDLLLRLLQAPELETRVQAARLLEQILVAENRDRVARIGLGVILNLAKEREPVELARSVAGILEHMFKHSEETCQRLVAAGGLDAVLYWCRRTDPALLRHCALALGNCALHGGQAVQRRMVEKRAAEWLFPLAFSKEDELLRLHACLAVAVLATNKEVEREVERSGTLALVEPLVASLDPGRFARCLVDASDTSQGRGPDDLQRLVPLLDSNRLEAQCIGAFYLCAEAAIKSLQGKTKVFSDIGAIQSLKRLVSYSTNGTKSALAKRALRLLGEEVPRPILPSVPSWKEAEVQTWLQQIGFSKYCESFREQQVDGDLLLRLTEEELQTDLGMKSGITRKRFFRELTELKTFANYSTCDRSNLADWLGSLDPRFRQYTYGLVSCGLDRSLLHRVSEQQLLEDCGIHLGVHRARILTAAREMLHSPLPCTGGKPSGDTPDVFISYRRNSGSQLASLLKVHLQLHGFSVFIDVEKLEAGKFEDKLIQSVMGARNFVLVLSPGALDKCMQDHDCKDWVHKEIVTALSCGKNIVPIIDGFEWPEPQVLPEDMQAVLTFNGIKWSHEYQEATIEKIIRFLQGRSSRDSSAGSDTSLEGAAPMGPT
assay-explanation: Base exchange reactions at neutral pH (HPLC)
Type: biochemical
test-conditions: hSARM1 full length, no trigger; NAD […] alone or + AcPyr 2 mM / Vacor 0.5 mM / Na 2 mM; pH 7.5
Entry rule: numbers only, all in mU/mg.

Consider the worked cases shown below.
>>> result("CC(=O)c1cccnc1")
42.6
>>> result("O=C(O)c1cccnc1")
23.3
>>> result("NC(=O)c1ccc[n+]([C@@H]2O[C@H](COP(=O)([O-])OP(=O)(O)OC[C@H]3O[C@@H](n4cnc5c(N)ncnc54)[C@H](O)[C@@H]3O)[C@@H](O)[C@H]2O)c1 [NAD, nicotinamide adenine dinucleotide]")
21.8

// field: rate; key: `O=C(NCc1cccnc1)Nc1ccc([N+](=O)[O-])cc1` ; value = 29.5

###

measured-target: hCD38 (Homo sapiens)
Construct: a soluble fragment Val43-Ile300 with 6x-His tag at C terminus; 6xHis (C); purchased R&D Systems
Sequence (P28907 43-300): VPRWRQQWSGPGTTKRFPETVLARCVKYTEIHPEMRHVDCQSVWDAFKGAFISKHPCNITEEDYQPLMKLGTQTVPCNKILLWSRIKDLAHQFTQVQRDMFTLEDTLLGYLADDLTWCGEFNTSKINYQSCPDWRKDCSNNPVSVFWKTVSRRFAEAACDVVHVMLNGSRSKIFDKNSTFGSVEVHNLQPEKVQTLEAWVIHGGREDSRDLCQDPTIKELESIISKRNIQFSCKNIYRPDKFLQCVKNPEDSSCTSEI
assay-explanation: NAD(P)ase activity by HPLC (kinetics, substrates, metal ions)
Format: biochemical
test-conditions: hCD38; dinucleotide 250 μM, 25°C, 2–6 h
test-readout: use as substrate (consumption rate)

Consider the worked cases shown below.
>>> result("Nc1ncnc2c1ncn2[C@@H]1O[C@H](COP(=O)(O)OP(=O)(O)OC[C@H]2O[C@@H]([n+]3cccc(C(=O)O)c3)[C@H](O)[C@@H]2O)[C@@H](O)[C@H]1O [NaAD, nicotinic acid adenine dinucleotide]")
"negligible usage"
>>> result("NC(=O)C1=CN([C@@H]2O[C@H](COP(=O)(O)OP(=O)(O)OC[C@H]3O[C@@H](n4cnc5c(N)ncnc54)[C@H](OP(=O)(O)O)[C@@H]3O)[C@@H](O)[C@H]2O)C=CC1 [NADPH]")
"negligible usage"
>>> result("NC(=O)c1ccc[n+]([C@H]2O[C@H](COP(=O)([O-])OP(=O)(O)OC[C@H]3O[C@@H](n4cnc5c(N)ncnc54)[C@H](O)[C@@H]3O)[C@@H](O)[C@H]2O)c1 [αNAD, alpha-NAD]")
"no activity"
>>> result("Nc1ncnc2c1ncn2[C@@H]1O[C@H](COP(=O)(O)OP(=O)([O-])OC[C@H]2O[C@@H]([n+]3cccc(CNC(=O)Nc4ccc([N+](=O)[O-])cc4)c3)[C@H](O)[C@@H]2O)[C@@H](O)[C@H]1O [VAD, vacor adenine dinucleotide]")
"no activity"

// field: use as substrate (consumption rate); key: NC(=O)C1=CN([C@@H]2O[C@H](COP(=O)(O)OP(=O)(O)OC[C@H]3O[C@@H](n4cnc5c(N)ncnc54)[C@H](O)[C@@H]3O)[C@@H](O)[C@H]2O)C=CC1 [NADH] ; value = negligible usage
